The following compounds are listed with their measured IC50 values.
- Measured on: CK1ε (Homo sapiens (Human), UniProt P49674)
- Sequence (P49674 whole entry): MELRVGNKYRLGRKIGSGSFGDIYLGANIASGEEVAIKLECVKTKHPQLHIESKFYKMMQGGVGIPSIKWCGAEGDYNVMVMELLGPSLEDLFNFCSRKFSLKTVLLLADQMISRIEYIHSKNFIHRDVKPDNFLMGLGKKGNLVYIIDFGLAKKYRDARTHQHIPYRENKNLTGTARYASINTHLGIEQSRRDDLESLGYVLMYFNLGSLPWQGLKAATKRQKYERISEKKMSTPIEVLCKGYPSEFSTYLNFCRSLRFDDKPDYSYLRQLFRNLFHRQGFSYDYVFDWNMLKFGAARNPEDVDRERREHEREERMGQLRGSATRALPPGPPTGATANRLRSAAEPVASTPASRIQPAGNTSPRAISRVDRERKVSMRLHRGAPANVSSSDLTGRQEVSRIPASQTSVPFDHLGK
- Experiment notes: CK1ε kinase assay (Caliper LABCHIP electrophoretic separation of fluoresceinated peptide substrate and product)
- Assay type: biochemical
- Condition: 200 pM CK1ε, 50 μM ATP, 1.5 μM peptide substrate, 22 hours at room temperature; read-out: CK1ε (IC50)
Measurement label: IC50

* Cc1n[nH]c2c(Cl)cc(-c3nn4c(c3C(N)=O)CN(C(=O)Nc3ccc(C#N)c(Cl)c3)CC4)cc12 [compound 321] | 0.01 to 10 nM
* Cc1cccc(-c2nn3c(c2C(N)=O)CN(C(=O)Nc2ccc(C#N)cc2)CC3)c1 [Compound 289] | 0.01 to 10 nM
* CN(C)c1cc(Cl)cc(-c2nn3c(c2C(N)=O)CN(C(=O)Nc2ccc(C#N)cc2)CC3)c1 [Compound 265] | 0.01 to 10 nM
* Cc1cc(Cl)cc(-c2nn3c(c2C(N)=O)CN(C(=O)Nc2ccc(C#N)cc2)CC3)c1 [Compound A62] | 0.01 to 10 nM
* CC1Cn2nc(-c3ccc(F)c(Cl)c3)c(C(N)=O)c2CN1C(=O)Nc1ccc(C#N)cc1 (single isomer, unassigned) [Compound 329] | 0.01 to 10 nM
* Cc1nn(C)c2c(Cl)cc(-c3nn4c(c3C(N)=O)CN(C(=O)Nc3ccc(C#N)cc3)CC4)cc12 [Compound 322] | 0.01 to 10 nM
* NC(=O)c1c(-c2cccc(F)c2)nn2c1CN(C(=O)Nc1ccc(F)cc1)CC2 [Compound 16] | 0.01 to 10 nM
* NC(=O)c1c(-c2cccc(F)c2)nn2c1CN(C(=O)Nc1ccc(F)c(Cl)c1)CC2 [Compound 60] | 0.01 to 10 nM

###

- Measured on: CK1δ (Homo sapiens (Human), UniProt P48730)
- Sequence (P48730 whole entry): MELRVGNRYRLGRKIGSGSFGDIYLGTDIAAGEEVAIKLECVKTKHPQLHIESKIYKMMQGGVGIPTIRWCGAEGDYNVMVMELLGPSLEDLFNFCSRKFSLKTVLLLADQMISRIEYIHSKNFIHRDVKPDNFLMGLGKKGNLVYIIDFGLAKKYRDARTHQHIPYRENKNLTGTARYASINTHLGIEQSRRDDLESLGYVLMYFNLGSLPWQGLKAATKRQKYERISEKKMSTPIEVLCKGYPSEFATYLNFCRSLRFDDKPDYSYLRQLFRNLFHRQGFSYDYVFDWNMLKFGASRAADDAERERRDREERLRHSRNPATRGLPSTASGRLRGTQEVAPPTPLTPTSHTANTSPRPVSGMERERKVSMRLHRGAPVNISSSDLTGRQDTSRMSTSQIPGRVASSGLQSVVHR
- Experiment notes: CK1δ kinase assay (Caliper LABCHIP electrophoretic separation of fluoresceinated peptide substrate and product)
- Format: biochemical
- Condition: 200 pM CK1δ, 50 μM ATP, 1.5 μM peptide substrate, 22 hours at room temperature; read-out: CK1δ (IC50)
pIC50: −log10 of the molar value.
The following compounds are listed with their measured pIC50 values.
Measurement label: pIC50

* N#Cc1ccc(NC(=O)N2CCn3nc(-c4ccc(F)c(Cl)c4)c(C(N)=O)c3C2)cc1 | 8.00 to 11.00
* CC(C)(OC(=O)N1CCC(NC(=O)N2CCn3nc(-c4cccc(F)c4)c(C(N)=O)c3C2)CC1)C(F)(F)F | 8.00 to 11.00
* NC(=O)c1c(-c2cccc(F)c2)nn2c1CN(C(=O)NC1CCN(S(=O)(=O)C3CC3)CC1)CC2 | 8.00 to 11.00
* N#Cc1ccc(NC(=O)N2CCn3nc(-c4cccc(F)c4)c(C(N)=O)c3C2)cc1C(F)(F)F | 8.00 to 11.00
* Cc1nn(C)c2c(Cl)cc(-c3nn4c(c3C(N)=O)CN(C(=O)Nc3ccc(C#N)cc3)CC4)cc12 | 8.00 to 11.00
* N#Cc1ccc(NC(=O)N2Cc3c(C(N)=O)c(-c4ccc(F)c(Cl)c4)nn3C(C(=O)NC3CCOCC3)C2)cc1 (single isomer, unassigned) [Compound A29] | 7.00 to 8.00
* COc1ccc(Cl)cc1-c1nn2c(c1C(N)=O)CN(C(=O)Nc1ccc(C#N)cc1)CC2 | 7.00 to 8.00

###

- Measured on: UniProtKB P48730
- Experiment notes: CK1δ kinase assay (Caliper LABCHIP electrophoretic separation of fluoresceinated peptide substrate and product)
- Type: biochemical
- Condition: 200 pM CK1δ, 50 μM ATP, 1.5 μM peptide substrate, 22 hours at room temperature; read-out: CK1δ (IC50)
Measurement label: IC50

- CC(C)(C)NC(=O)N1CCn2nc(-c3cnc4ccccc4c3)c(C(N)=O)c2C1 [Compound 119]: 0.01 to 10 nM
- NC(=O)c1c(-c2cccc(F)c2)nn2c1CN(C(=O)Nc1ccc3ccccc3c1)CC2 [Compound 59]: 0.01 to 10 nM
- N#Cc1cccc(NC(=O)N2CCn3nc(-c4cccc(Cl)c4)c(C(N)=O)c3C2)c1 [Compound 161]: 0.01 to 10 nM
- Cn1ncc2c(F)cc(-c3nn4c(c3C(N)=O)CN(C(=O)Nc3ccc(C#N)cc3)CC4)cc21 [Compound 326]: 0.01 to 10 nM
- CC(C)(C)NC(=O)N1CCn2nc(-c3ccc(F)cc3F)c(C(N)=O)c2C1 [Compound 124]: 100 to 2000 nM
- N#Cc1ccc(NC(=O)N2Cc3c(C(N)=O)c(-c4ccc(F)c(Cl)c4)nn3C(C(=O)NC3CCOCC3)C2)cc1 (single isomer, unassigned) [Compound A28]: 10 to 100 nM
- Cc1cc(-c2nn3c(c2C(N)=O)CN(C(=O)Nc2ccc(C#N)c(F)c2)CC3)ccc1F [Compound 243]: 0.01 to 10 nM
- Cn1cc2c(F)cc(-c3nn4c(c3C(N)=O)CN(C(=O)Nc3ccc(C#N)cc3)CC4)cc2n1 [Compound 328]: 10 to 100 nM

###

- Measured on: UniProt P48730
- Experiment notes: CK1δ kinase assay (Caliper LABCHIP electrophoretic separation of fluoresceinated peptide substrate and product)
- Type: biochemical
- Condition: 200 pM CK1δ, 50 μM ATP, 1.5 μM peptide substrate, 22 hours at room temperature; read-out: CK1δ (IC50)
pIC50: −log10 of the molar value.
Measurement label: pIC50

• CC(C)(NC(=O)N1CCn2nc(-c3cccc(F)c3)c(C(N)=O)c2C1)c1ccccc1 = 8.00 to 11.00
• Cc1cc(-c2nn3c(c2C(N)=O)CN(C(=O)Nc2ccc(C#N)cc2)CC3)ccc1F = 8.00 to 11.00
• N#Cc1ccc(NC(=O)N2Cc3c(C(N)=O)c(-c4ccc(F)c(Cl)c4)nn3[C@H](C(F)F)C2)cc1Cl = 8.00 to 11.00
• NC(=O)c1c(-c2cccc(F)c2)nn2c1CN(C(=O)Nc1ccc(F)c(F)c1)CC2 = 8.00 to 11.00
